test: NCI Yeast Anticancer Drug Screen. Data for the mlh1 rad18 strain (AID 175); settings: S. cerevisiae mlh1 rad18 strain growth inhibition; at 5.0 µM (retest, dose inferred, filed as 0.5); hits give high values
This is part of a sample that, as a whole, favours compounds with a hit. Of some 79,000 tested, about 15% had one in any assay.
measurement.kind: growth inhibition (%)
Answer format: numeric, % implied, no suffix.

Sample answers from the record:
CC(=O)c1c2c(cc3c1CC1(C3)Cc3ccc4c(c3C1=O)CCC4)CCC2 (stereo not given) : 7
O=[N+]([O-])c1cc(I)c(O)c(/C=N/NS(=O)(=O)c2ccc(Cl)cc2)c1 : -2
O=Nc1c(O)ccc2ccccc12.[Fe].[Na+] : 4
CCOC(=O)c1c(Cl)c(CC)c(N=[N+]=[N-])n2c1nc1ccccc12 : 9

For the next question, use this compound.
Q: Give the measured growth inhibition of Clc1ccc(CN2CCCN(Cc3ccc(Cl)cc3)C2C2CCC=CO2)cc1 (stereo not given) .
A: -14

* * *

Each entry below carries its recorded growth inhibition.
experiment: NCI Yeast Anticancer Drug Screen. Data for the sgs1 mgt1 strain (AID 161);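 note: 0% = growth of cultures given vehicle only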; conditions: S. cerevisiae sgs1 mgt1 strain, at 50.0 µM (retest, dose inferred, filed as 5.0), hits give high values
The panel holds about 79,000 compounds, 15% with a hit somewhere; the sample as a whole holds those more often.
Answer format: numeric, % implied, no suffix.

Cc1cc2nc(CS)[nH]c2cc1C : 70
CCCOc1ccc(-c2nc(-c3ccc(N=Cc4ccc(N(CCOS(C)(=O)=O)CCOS(C)(=O)=O)cc4C)cc3)cs2)cc1 : 89
Cc1ccc(S(=O)(=O)Oc2ccc3oc4c(CO)ccc(NCCN(C)C)c4c(=O)c3c2)cc1 : 16
Cc1occc1C(=S)Nc1ccc(Cl)c(C(=O)OCC(C)C)c1 : 71

For the next question, use this compound.
Q: Give the measured growth inhibition of Cn1c(-c2ccc(/C=N/NC(N)=NCCCCCCN=C(N)N/N=C/c3ccc(-c4c[n+]5ccccc5n4C)cc3)cc2)c[n+]2ccccc12 .
A: 98

* * *

Assay: NCI Yeast Anticancer Drug Screen. Data for the mlh1 rad18 strain (AID 175)
Settings: S. cerevisiae mlh1 rad18 strain growth inhibition; at 50.0 µM; hits give high values
Description: Growth inhibition of yeast strains with defined genetic alterations is measured as a screen for potential anti-cancer activity. Selected strains with alterations in DNA damage repair or cell cycle control were exposed to compounds and growth inhibition was measured relative to vehicle treated controls. The strain used in this assay is mlh1 rad18
About 79,000 compounds went through this panel and 15% of them were active in at least one assay; those are over-represented in the sample as a whole.
measurement.kind: growth inhibition (%)
Answer format: numeric, % implied, no suffix.

COC(=O)c1nc(=S)[nH]c(C(=O)OC)c1C(=O)c1ccccn1 : 89.1
CCC(=O)c1ccc2ccc3ccccc3c2c1 : 50.9
CC(C)(C)CC(C)(C)c1ccc(OCCSC(=N)N)cc1 : 99.2
CC(C)C(NC(=O)/C=C\c1ccccc1)C(=O)O (stereo unspecified) : 95.2

Q: Give the measured growth inhibition of COc1ccccc1NC(=O)CC(=O)N1N=C(C)C(N=Nc2ccc(C(=O)O)cc2)C1=O (stereo unspecified) .
A: 2.3

Q: Give the measured growth inhibition of CC(NNC(=S)N1CC2CCC(CC2)C1)c1cc2ccccc2cn1 (stereo unspecified) .
A: 98

Q: Give the measured growth inhibition of O=c1c(S(=O)(=O)Oc2ccccc2)coc2cc(F)ccc12 .
A: 93.1

Q: Give the measured growth inhibition of O=C(NCCCCCCNC(=O)n1cc(F)c(=O)[nH]c1=O)NCCCOCCOCCOCCOCCOCCOCCOCCOCCOCCOCCOCCOCCOCCOCCOCCOCCOCCOCCOCCOCCOCCCNC(=O)C(O)C(O)C(O)C(O)CO (stereo unspecified) .
A: -10.8

Q: Give the measured growth inhibition of CN(C)c1ccc(C(=C2C=CC(=[N+](C)C)C=C2)c2ccc(N(C)C)cc2)cc1 (tested in a mixture with another compound) .
A: 86.5

Q: Give the measured growth inhibition of O=C(/C=C/c1cccc(Cl)c1)c1ccccc1 .
A: 99.4

Q: Give the measured growth inhibition of CC(=O)Nc1ccc2c(c1)/C(=N/O)c1ccccc1-2 .
A: 77.3

Q: Give the measured growth inhibition of CC(=O)C(=Cc1ccc(C=C(C(C)=O)C(C)=O)cc1)C(C)=O .
A: 94.7

Q: Give the measured growth inhibition of CC1CCN(CCC(=O)c2cccc(O)c2)CC1 .
A: 65.8

Q: Give the measured growth inhibition of O=C(CC1(O)C(=O)Nc2c(Cl)cc(Cl)cc21)c1ccc(Cl)cc1 (stereo unspecified) .
A: 93.8

Q: Give the measured growth inhibition of Cc1c2ccccc2c(CSC(=N)N)c2ccccc12 .
A: 99.7

Q: Give the measured growth inhibition of Cc1ccccc1N1CCN(c2c3c(nc4ccccc24)CCCCC3)CC1 .
A: 96.5

Q: Give the measured growth inhibition of O=C(Nc1ccccc1-c1nn(C(=S)Nc2ccccc2)c(=S)n(C(=S)Nc2ccccc2)c1=O)C(F)(F)F .
A: 81.5

* * *

test: NCI Yeast Anticancer Drug Screen. Data for the rad50 strain (AID 155);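 note: 0% = growth of vehicle-only cultures of the same strain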; settings: S. cerevisiae rad50 strain growth inhibition; at 5.0 µM (retest, dose inferred, filed as 0.5)
This is part of a sample that, as a whole, favours compounds with a hit. Of some 79,000 tested, about 15% had one in any assay. The source made the active and inactive calls. Cut-off read from the data, not from the text of the source: active = growth inhibition above about 70%; inactive = the rest.
Permitted responses: t (active), f (inactive)

Completed entries (count: 5):
CCc1c(Nc2ccccc2C)[nH]c(N)nc1=S : f
CC(=O)Nc1nnc(C)s1 : f
CC(CO)(Nc1ccc([N+](=O)[O-])cc1[N+](=O)[O-])C(=O)O (stereo unspecified) : f
Cn1c(-c2ccc(/C=N/NC(N)=NCCCCCCN=C(N)N/N=C/c3ccc(-c4c[n+]5ccccc5n4C)cc3)cc2)c[n+]2ccccc12 : t
CCc1nc(N)nc(N)c1-c1ccc(NCCN)c([N+](=O)[O-])c1 : f

Could you now consider this next molecule?
Q: Hey, what did the test say about O=C(O)CC1(C(=O)O)CCCCC1 ?
A: f

* * *

assay: NCI Yeast Anticancer Drug Screen. Data for the bub3 strain (AID 167); conditions: S. cerevisiae bub3 mutant strain, at 5.0 µM (retest, dose inferred, filed as 0.5)
About 79,000 compounds went through this panel and 15% of them were active in at least one assay; those are over-represented in the sample as a whole. Calls of active or inactive are those of the source. Cut-off read from the data, not from the text of the source: active = growth inhibition above about 70%; inactive = the rest.
Permitted responses: active, inactive

Completed entries (count: 4):
Cc1ccnc(NC(c2ccccc2)c2ccc3cccnc3c2O)c1 (stereo unspecified) : inactive
NCCSC1(O)C(=O)c2ccccc2-c2ccccc21 (stereo unspecified) : active
NC(=Nc1cc2ccccc2c2ccccc12)/N=C(/N)Nc1cc2ccccc2c2ccccc12 : active
c1coc(C2=Nc3cccc4cccc(c34)N2)c1 : inactive

Q: Hey, what did the test say about CN(C)CCC(/C=C/c1ccccc1)=N\Nc1c(F)c(F)c(F)c(F)c1F ?
A: inactive

Q: Hey, what did the test say about C[N+](C)=c1ccc2nc3c(cc(NCCCNc4cc5oc6cc(=[N+](C)C)ccc-6nc5c5ccccc45)c4ccccc43)oc-2c1 ?
A: inactive

Q: Hey, what did the test say about O=C1NC2(C=Cc3c(ccc4ccccc34)O2)Oc2ccccc21 (stereo unspecified) ?
A: inactive

* * *

test: NCI Yeast Anticancer Drug Screen. Data for the mec2-1 strain (AID 157); settings: S. cerevisiae mec2-1 strain, at 5.0 µM (retest, dose inferred, filed as 0.5)
The panel holds about 79,000 compounds, 15% with a hit somewhere; the sample as a whole holds those more often. Active and inactive are the calls of the source. No stated cut-off is given here; in the data, active means growth inhibition above about 70%; inactive means the rest.
Permitted responses: active, inactive

Completed entries (count: 5):
CCOc1ncc(Cl)c(OCC)n1 : inactive
CCOc1cc(/C=N/NC(=S)NC23CC4CC(CC(C4)C2)C3)ccc1O : inactive
CCOC(=O)/C(=C/c1ccccn1)C(=O)c1ccccc1 : inactive
CC(C)(C)N/N=C(\C(=O)NC1=C(Cl)C(=O)c2ccccc2C1=O)C1C=CCS1(=O)=O (stereo not drawn) : inactive
CC(C)C1(c2ccccc2)C(=O)c2ccccc2C1=O : inactive

Q: Hey, what did the test say about Brc1cc2ccccc2c2ccccc12 ?
A: inactive

Q: Hey, what did the test say about CCCCCCCN(CCCCCCC)CC(O)c1ccc2ccc3ccccc3c2c1 (stereo not drawn) ?
A: inactive

Q: Hey, what did the test say about CCOC(=O)NCCCc1ccc2oc3ccccc3c2c1 ?
A: inactive

Q: Hey, what did the test say about CN(C)CC1CCC/C(=C\c2ccc(Cl)cc2)C1=O (stereo not drawn) ?
A: inactive

Q: Hey, what did the test say about O=C(CCN1CCCCC1)/C(=C\c1ccc(Cl)cc1)c1ccccc1 ?
A: inactive

* * *

test: NCI Yeast Anticancer Drug Screen. Data for the mec2-1 strain (AID 157); settings: S. cerevisiae mec2-1 strain, at 5.0 µM (retest, dose inferred, filed as 0.5), hits give high values
About 79,000 compounds went through this panel and 15% of them were active in at least one assay; those are over-represented in the sample as a whole.
measurement.kind: growth inhibition (%)
Answer format: numeric, % implied, no suffix.

Sample answers from the record:
Cc1c2ccncc2cc2c3ccccc3n(C)c12 : -58
C=C(CCC(C)C1CCC2(C)C3=C(CC(O)C12C)C1(C)CCC(O)C(C)(C)C1CC3)C(C)C(=O)O (stereo unspecified) : 15
CCOC(=O)c1csc(/C=C/c2cc(OC)c(OC)c(OC)c2)n1 : -1
Cc1cc2nc(CC(=O)c3ccncc3)c(CC(=O)c3ccncc3)nc2cc1C : 9
CCCCCCCCCCCCCC(=O)OCC(O)CO (stereo unspecified) : 2

Q: Give the measured growth inhibition of CCC(C(=O)C(C)C(O)C(C)CCc1ccc(C)c(O)c1C(=O)O)C1OC(CC)(C2CCC(O)(CC)C(C)O2)CC1C (stereo unspecified) .
A: 56

Q: Give the measured growth inhibition of OC(CCl)COc1c(Cl)c(Cl)c(Cl)c(Cl)c1Cl (stereo unspecified) .
A: -1

Q: Give the measured growth inhibition of CC(C)C(=O)OCC(C)(C)C1OCC(C)(C)C(C(C)C)O1 (stereo unspecified) .
A: 97

Q: Give the measured growth inhibition of CCN(CC)CCNCc1ccccc1 .
A: -49

Q: Give the measured growth inhibition of N#Cc1ccc([N+](=O)[O-])o1 .
A: 1

Q: Give the measured growth inhibition of C[n+]1c(/C=C/c2ccc([N+](=O)[O-])cc2)ccc2ccccc21 .
A: -2

The measurements presented in this section are drawn from PubChem BioAssay (NCI).
